Test: yeast display, Sf9 membrane polyspecificity reagent, FACS + sequencing; frameworks hold sequencing errors
result_type: polyreactivity (PSR sort gate)

record_sequence | experimental_value
QVQLVESGGGLVQAGGSLRLSCAASGRIFDWNMGWYRQAPGKDRELVAGITFSVDSTYYADSVKGRFTISRDNAKNTVYLQMNSLKPEDTAYWGQGTQVTVST | low polyreactivity
QVQLVESGGGLVQAGGSLRLSCAASGGTFNAYAMGWYRQAPGKERELVATISYSGGSTYYADSVKGRFTISRDNAKNTVYLQMNSLKPEDTAVYYCAKVRYYPYSPGGLDYWGQGTQVTVSS | low polyreactivity

----------
Assay: yeast display, Sf9 membrane polyspecificity reagent, FACS + sequencing; frameworks hold sequencing errors
result_type: polyreactivity (PSR sort gate)

Known results for sequences:
record_sequence | polyreactivity (PSR sort gate)
QVQLVESGGGLVQAGGSLRLSCADSGFTFIKYAMGWYRQAPGKEREFVATISWNGGNTYYADSVKGRFTISRDNAKNTVYLQMNSLKPEDTAVYYCAARVKYRTRGGTVVSYDYWGQGPQVTVSS | high polyreactivity
QVQLVESGGGLVEAGGSLRLSCAASGRIFLYKAMGWYRQAPVKERELVAAITASGGTTYYADSVKGRFTLSRDNAKNTVYLQMNSLKPEDTAVYYCNAYSYSGERYYWGQGTQVTVSS | high polyreactivity
QVQLVESGGGLVQAGGSLRLSCAASGFIVGRYAMGWYRQAPGNERELVAAITRSGGSTYYADSVKGRFTISRDNAKNTVYLQMISLKPEQTAVYFGAAYPGRAQVAYDYWGQGTQVTVSS | high polyreactivity
QVQLVESGGGLVQAGGSLRLSCAASGRTFRYHAMGWYRQAPGKERELVAGISWSGTSTYYADSVKGRFTISRDNAKNTVYLQMNSLKPEDTAVYYCNAVFRYRYDYWGQGTQVTVSS | high polyreactivity
QVQLVESGGGLVQAGGSLRLSCAASGSIFIANAMGWYRQAPGKERELVASISSGGSTNYADSVKGRFTISRDNAKNTVYLQMNSLKPEDTAVYYCAADGTDDYGGDFYLWVDYWGQGTQVTVSS | low polyreactivity

From here, focus on the item given below.
Req: Endpoint output: polyreactivity (PSR sort gate) of QVQLVESGGGLVQAGGSLRLSCAASGIIFSWNTMGWYRQAPGKERELVAAISSSGGSTYYADSVKGRFTISRDNAKNTVYLQMNSLKPEDTAVYYCAADVYHWIHEYDYWGQGTQVTVSS . Value?
Resp: low polyreactivity
